Origin of measurements: ChEMBL document CHEMBL5058577

# System: Fibroblast
# methodNotes: Multiplex assay against human fibroblast
# Assay type: toxicity, cell-based
# conditionInfo: 12 h, 10 µM, compound concentration 10 uM, replicate 1
Non-standard residues stand in square brackets, D forms with d. Residues, ends and D or L forms follow the SMILES beside them.
Parameter Total Cell Count: see the listing below.

- compound: "O=c1ccc2ccc(OCCCCN3CCN(c4cccc5sccc45)CC3)cc2[nH]1"
  Total Cell Count: 203
- compound: "CC(C)C[C@@H]1NC(=O)[C@@H](C(C)C)NC(=O)[C@@H]2CCCN2C(=O)[C@@H](CC(=O)O)NC(=O)[C@@H](Cc2c[nH]c3ccccc23)NC1=O [BQ-123] (cyclo(L[dW][dD]P[dV]))"
  Total Cell Count: 136
- compound: "O=c1nc2[nH]c3ccccc3nc-2c(=O)[nH]1"
  Total Cell Count: 158

====

# System: U2OS
# methodNotes: Multiplex assay against U2OS
# Assay type: toxicity, cell-based
# conditionInfo: human, 12 h, 1 µM, compound concentration 1 uM, replicate 2
recordedMetric: Population Pyknosed Nuclei (%)

- compound: "Cc1cc(NC(=O)NCCN2CCC(O)(Cc3ccccc3)CC2)c2ccccc2n1"
  measurementTarget: "U2OS"
  unitSpec: "%"
  measuredResult: 9
- compound: "S=C(NCCCc1c[nH]cn1)NCCCN(Cc1ccc(Cl)c(Cl)c1)c1ccc(Br)cn1"
  measurementTarget: "U2OS"
  unitSpec: "%"
  measuredResult: 11
- compound: "CC(C)C[C@H](CO)Nc1nc(S[C@@H](C)c2ccccc2)nc2nc(N)sc12"
  measurementTarget: "U2OS"
  unitSpec: "%"
  measuredResult: 5
- compound: "CCc1nn2c(C)cc(C)nc2c1Cc1ccc(-c2nnc(C3CCNCC3)o2)cc1"
  measurementTarget: "U2OS"
  unitSpec: "%"
  measuredResult: 6
- compound: "CCC(=O)OCC(=O)[C@@]1(OC(=O)CC)[C@@H](C)C[C@H]2[C@@H]3CCC4=CC(=O)C=C[C@]4(C)[C@@]3(Cl)[C@@H](O)C[C@@]21C [BECLOMETHASONE DIPROPIONATE]"
  measurementTarget: "U2OS"
  unitSpec: "%"
  measuredResult: 6
- compound: "COC(c1ccccc1)(c1ccccc1)[C@H](Oc1nc(C)cc(C)n1)C(=O)O"
  measurementTarget: "U2OS"
  unitSpec: "%"
  measuredResult: 5
- compound: "O=c1ccc2ccc(OCCCCN3CCN(c4cccc5sccc45)CC3)cc2[nH]1"
  measurementTarget: "U2OS"
  unitSpec: "%"
  measuredResult: 14
- compound: "O=C(Nc1cc(-c2ccccc2)nn1-c1ccccc1F)c1ccc([N+](=O)[O-])cc1"
  measurementTarget: "U2OS"
  unitSpec: "%"
  measuredResult: 6
- compound: "Cc1cc(=O)n(C)c2cc(N3C(=O)CC[C@H](NS(=O)(=O)CC(C)C)[C@H]3c3ccc(Cl)cc3)ccc12"
  measurementTarget: "U2OS"
  unitSpec: "%"
  measuredResult: 10

====

# System: Fibroblast
# methodNotes: Multiplex assay against human fibroblast
# Assay type: toxicity, cell-based
# conditionInfo: 12 h, 1 µM, compound concentration 1 uM, replicate 1
Catalogue of Population Tubulin-Different-Phenotype (%) values
recordedMetric: Population Tubulin-Different-Phenotype (%)

- molecule: "CN1CCC(C(=O)c2cccc(NC(=O)c3c(F)cc(F)cc3F)n2)CC1"
  measuredResult: 28
- molecule: "Cc1nn(C)c2nc(NNC(=O)Nc3cc(Cl)nc(Cl)c3)cc(C(C)C)c12"
  measuredResult: 27
- molecule: "COc1cc(C(=O)N2CC[C@@H](O)[C@@H](N)C2)cc2nc(-c3cc4ccccc4n3CC3CC3)n(C)c12.Cl"
  measuredResult: 55
- molecule: "CC(C)(O)C(=O)N1CCN(c2ccc(C(F)(F)F)c(C3=C(c4c[nH]c5ccccc45)C(=O)NC3=O)c2)CC1"
  measuredResult: 30
- molecule: "COC(c1ccccc1)(c1ccccc1)[C@H](Oc1nc(C)cc(C)n1)C(=O)O"
  measuredResult: 29
- molecule: "O=c1ccc2ccc(OCCCCN3CCN(c4cccc5sccc45)CC3)cc2[nH]1"
  measuredResult: 41
- molecule: "COCCCN1CCC(NC(=O)c2cc(Cl)c(N)c3c2OCC3)CC1 [PRUCALOPRIDE]"
  measuredResult: 30
- molecule: "C[C@@H]1CC(=O)Nc2cccc(-c3ccc4c(c3)c(-c3cnn(C)c3)nn4C)c2N1"
  measuredResult: 31
- molecule: "CCn1c(-c2nc3cc(C(=O)N4CCCC(N)C4)ccc3n2C)cc2ccccc21.Cl (stereo not given)"
  measuredResult: 27
- molecule: "O=c1nc2[nH]c3ccccc3nc-2c(=O)[nH]1"
  measuredResult: 23
- molecule: "Cc1sc2c(c1C)C(c1ccc(Cl)cc1)=N[C@H](CC(=O)OC(C)(C)C)c1nnc(C)n1-2"
  measuredResult: 30
- molecule: "Cc1ccc(OCC(O)C(C)NC(C)C)c2c1CCC2.Cl (stereo not given)"
  measuredResult: 26
- molecule: "Cc1cc(O)c(-c2ccc([C@@H](C)CN(C)C)cc2)c2c1[nH]c(=O)c1sccc12"
  measuredResult: 44
- molecule: "COc1cc2nc(N3CCN(C(=O)c4ccco4)CC3)nc(N)c2cc1OC.Cl [PRAZOSIN HYDROCHLORIDE]"
  measuredResult: 26
- molecule: "CC(C)C[C@H](CO)Nc1nc(S[C@@H](C)c2ccccc2)nc2nc(N)sc12"
  measuredResult: 23
- molecule: "N[C@](CC1c2ccccc2Oc2ccccc21)(C(=O)O)[C@H]1C[C@@H]1C(=O)O"
  measuredResult: 27
- molecule: "Nc1nc(-c2ccco2)c2cnn(Cc3ccccc3F)c2n1"
  measuredResult: 26
- molecule: "COc1cc(OC2CCN(C(C)=O)CC2)ccc1C(=O)N1CCC(N2C(=O)OCc3ccccc32)CC1"
  measuredResult: 32
- molecule: "CCCCC[C@H](O)/C=C/[C@H]1[C@H](O)CC(=O)[C@@H]1CCCCCCC(=O)O"
  measuredResult: 12
- molecule: "Cl.Cl.OCCOCCN1CCN(C(c2ccccc2)c2ccc(Cl)cc2)CC1 (stereo not given) [HYDROXYZINE HYDROCHLORIDE]"
  measuredResult: 25
- molecule: "O=C(O)CCC/C=C\\CC1C(O)CC(O)C1/C=C/C(O)COc1cccc(Cl)c1 (stereo not given)"
  measuredResult: 22
- molecule: "COc1cc2nc(N3CCN(C(=O)COc4c(OC)cccc4C(C)C)CC3)nc(N)c2cc1OC.Cl.Cl"
  measuredResult: 40
- molecule: "COc1ccc2c(c1OCc1ccccc1)C[C@@H](C(=O)O)N(C(=O)C(c1ccccc1)c1ccccc1)C2"
  measuredResult: 29
- molecule: "CCCCCCNC(=O)Nc1ccc(S(=O)(=O)Nc2ccc(CCNC[C@H](O)COc3ccc(O)cc3)cc2)cc1"
  measuredResult: 34
- molecule: "CN(C)C/C=C/C(=O)Nc1ccc(C(=O)N2CCCC(Nc3ncc(Cl)c(-c4c[nH]c5ccccc45)n3)C2)cc1 (stereo not given)"
  measuredResult: 40
- molecule: "Cc1c(Cc2ccc3ccccc3n2)c2cc(F)ccc2n1CC(=O)O"
  measuredResult: 26
- molecule: "CC(C)(C)c1ccc(CSc2cnn(C(C)(C)C)c(=O)c2Cl)cc1"
  measuredResult: 28
- molecule: "CN1CCN2c3ccccc3Cc3ccccc3C2C1.Cl (stereo not given) [MIANSERIN HYDROCHLORIDE]"
  measuredResult: 31
- molecule: "Cn1cc(C(=O)OCC2CCN(CCNS(C)(=O)=O)CC2)c2ccccc21"
  measuredResult: 23
- molecule: "O=C(NCCNCC(O)COc1ccc(O)cc1)N1CCOCC1.O=C(NCCNCC(O)COc1ccc(O)cc1)N1CCOCC1.O=C(O)/C=C/C(=O)O (stereo not given) [XAMOTEROL FUMARATE]"
  measuredResult: 24
- molecule: "CN1C[C@H](C(=O)N[C@]2(C)O[C@@]3(O)[C@@H]4CCCN4C(=O)[C@H](Cc4ccccc4)N3C2=O)C[C@@H]2c3cccc4[nH]cc(c34)C[C@H]21.CS(=O)(=O)O [DIHYDROERGOTAMINE MESYLATE]"
  measuredResult: 23
- molecule: "S=C(NCCCc1c[nH]cn1)NCCCN(Cc1ccc(Cl)c(Cl)c1)c1ccc(Br)cn1"
  measuredResult: 26
- molecule: "O=C(Nc1cc(-c2ccccc2)nn1-c1ccccc1F)c1ccc([N+](=O)[O-])cc1"
  measuredResult: 22
- molecule: "COCCn1c(C)c(C)s/c1=N\\C(=O)C1C(C)(C)C1(C)C"
  measuredResult: 34
- molecule: "CN1CCN(c2ccc(Nc3c4ccccc4nc4ccccc34)cc2)CC1.Cl.Cl.O"
  measuredResult: 23

====

# Test system: Fibroblast
# methodNotes: Multiplex assay against human fibroblast
# Type: toxicity, cell-based
# conditionInfo: 12 h, 1 µM, compound concentration 1 uM, replicate 1
recordedMetric: Population Mitochondria Different-Phenotype (%)

- molecule: "Nc1nc(CC(=O)Nc2ccc(CCNC[C@H](O)c3ccccc3)cc2)cs1"
  measuredResult: 6
- molecule: "COc1cc2nc(N3CCN(C(=O)c4ccco4)CC3)nc(N)c2cc1OC.Cl [PRAZOSIN HYDROCHLORIDE]"
  measuredResult: 1
- molecule: "CN1CCC(C(=O)c2cccc(NC(=O)c3c(F)cc(F)cc3F)n2)CC1"
  measuredResult: 4
- molecule: "Cc1ccc(OCC(O)C(C)NC(C)C)c2c1CCC2.Cl (centres undefined)"
  measuredResult: 3
- molecule: "COc1c(Nc2ccc(S(C)(=O)=O)nc2C)ncnc1OC1CCN(C(=O)OC(C)C)CC1"
  measuredResult: 10
- molecule: "Cc1cc(=O)n(C)c2cc(N3C(=O)CC[C@H](NS(=O)(=O)CC(C)C)[C@H]3c3ccc(Cl)cc3)ccc12"
  measuredResult: 4
- molecule: "CC(F)(F)CN1CCOc2c(nn(-c3ccccc3Cl)c2-c2ccc(Cl)cc2)C1=O"
  measuredResult: 4
- molecule: "COCCn1c(C)c(C)s/c1=N\\C(=O)C1C(C)(C)C1(C)C"
  measuredResult: 7
- molecule: "CN(C)C(=O)Cn1cc(-c2ccc(-c3nnc4ccccn34)cc2)cn1"
  measuredResult: 3
